Ref: ChEMBL document CHEMBL4765445

# subject of test: Proto-oncogene tyrosine-protein kinase receptor Ret (Homo sapiens, UniProt P07949)
# Sequence (P07949 whole entry): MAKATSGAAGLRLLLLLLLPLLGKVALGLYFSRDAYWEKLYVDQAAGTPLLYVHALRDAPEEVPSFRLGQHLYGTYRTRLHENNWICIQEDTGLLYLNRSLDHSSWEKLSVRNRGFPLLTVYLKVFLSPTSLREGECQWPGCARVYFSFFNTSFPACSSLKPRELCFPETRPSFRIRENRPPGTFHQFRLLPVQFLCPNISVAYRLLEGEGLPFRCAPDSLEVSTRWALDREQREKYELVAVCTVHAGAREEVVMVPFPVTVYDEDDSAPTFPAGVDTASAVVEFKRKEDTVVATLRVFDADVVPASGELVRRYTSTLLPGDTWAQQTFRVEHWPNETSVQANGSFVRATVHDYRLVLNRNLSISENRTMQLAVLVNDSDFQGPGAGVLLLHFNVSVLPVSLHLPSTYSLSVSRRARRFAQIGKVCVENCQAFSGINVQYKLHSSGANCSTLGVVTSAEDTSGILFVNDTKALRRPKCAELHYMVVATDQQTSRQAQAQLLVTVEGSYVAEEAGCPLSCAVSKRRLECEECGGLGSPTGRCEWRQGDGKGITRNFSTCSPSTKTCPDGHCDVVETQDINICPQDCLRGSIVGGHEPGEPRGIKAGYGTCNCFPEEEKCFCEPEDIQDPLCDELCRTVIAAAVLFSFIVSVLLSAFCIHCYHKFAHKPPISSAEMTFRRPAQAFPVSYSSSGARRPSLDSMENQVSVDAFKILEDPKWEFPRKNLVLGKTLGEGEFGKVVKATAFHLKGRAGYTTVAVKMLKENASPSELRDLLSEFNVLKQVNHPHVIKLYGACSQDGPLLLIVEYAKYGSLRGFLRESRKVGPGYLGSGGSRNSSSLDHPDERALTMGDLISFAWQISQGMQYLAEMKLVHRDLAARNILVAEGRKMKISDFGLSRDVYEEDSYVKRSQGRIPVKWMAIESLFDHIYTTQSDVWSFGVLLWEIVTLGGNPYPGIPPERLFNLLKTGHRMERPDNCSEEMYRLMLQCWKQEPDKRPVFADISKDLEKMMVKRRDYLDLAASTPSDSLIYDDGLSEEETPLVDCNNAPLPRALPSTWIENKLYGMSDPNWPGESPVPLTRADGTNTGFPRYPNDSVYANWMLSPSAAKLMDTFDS
reported metric: pIC50
Kindly note that pIC50 refers to -log10 of the concentration in mol/L and answer with the value alone.

Exam item: Query for Proto-oncogene tyrosine-protein kinase receptor Ret (Homo sapiens, UniProt P07949): what pIC50 does the record show for COc1cc2ncnc(Oc3ccc(Nc4nccc5[nH]cc(-c6ccc(F)cc6)c(=O)c45)cc3F)c2cc1OC ?
Marked response: 7.19

###

# assay notes: AUC (0 to infinity) in rat at 10 mg/kg, po
# Format: ADME, organism-based
# Parameters: time infinity, route oral, dose 10 mg/kg
# condition label: in vivo
reported metric: AUC(0-inf) (µg·h/mL)
Number only, in µg·h/mL; omit the unit.

Exam item: Fill in: AUC(0-inf) of COc1cc2ncnc(Oc3ccc(Nc4nccc5[nH]cc(-c6ccc(F)cc6)c(=O)c45)cc3)c2cc1OC is ___
Marked response: 427

###

# assay notes: Cmax in rat at 10 mg/kg, po
# Format: ADME, organism-based
# Design: route oral, dose 10 mg/kg
# condition label: in vivo
reported metric: Cmax (ng/mL)
Number only, in ng/mL; omit the unit.

Exam item: Fill in: Cmax of COc1cc2ncnc(Oc3ccc(Nc4nccc5[nH]cc(-c6ccc(F)cc6)c(=O)c45)cc3)c2cc1OC is ___
Marked response: 25100

###

# subject of test: Vascular endothelial growth factor receptor 2 (Homo sapiens, UniProt P35968)
# Sequence (P35968 whole entry, the tested form may be a part): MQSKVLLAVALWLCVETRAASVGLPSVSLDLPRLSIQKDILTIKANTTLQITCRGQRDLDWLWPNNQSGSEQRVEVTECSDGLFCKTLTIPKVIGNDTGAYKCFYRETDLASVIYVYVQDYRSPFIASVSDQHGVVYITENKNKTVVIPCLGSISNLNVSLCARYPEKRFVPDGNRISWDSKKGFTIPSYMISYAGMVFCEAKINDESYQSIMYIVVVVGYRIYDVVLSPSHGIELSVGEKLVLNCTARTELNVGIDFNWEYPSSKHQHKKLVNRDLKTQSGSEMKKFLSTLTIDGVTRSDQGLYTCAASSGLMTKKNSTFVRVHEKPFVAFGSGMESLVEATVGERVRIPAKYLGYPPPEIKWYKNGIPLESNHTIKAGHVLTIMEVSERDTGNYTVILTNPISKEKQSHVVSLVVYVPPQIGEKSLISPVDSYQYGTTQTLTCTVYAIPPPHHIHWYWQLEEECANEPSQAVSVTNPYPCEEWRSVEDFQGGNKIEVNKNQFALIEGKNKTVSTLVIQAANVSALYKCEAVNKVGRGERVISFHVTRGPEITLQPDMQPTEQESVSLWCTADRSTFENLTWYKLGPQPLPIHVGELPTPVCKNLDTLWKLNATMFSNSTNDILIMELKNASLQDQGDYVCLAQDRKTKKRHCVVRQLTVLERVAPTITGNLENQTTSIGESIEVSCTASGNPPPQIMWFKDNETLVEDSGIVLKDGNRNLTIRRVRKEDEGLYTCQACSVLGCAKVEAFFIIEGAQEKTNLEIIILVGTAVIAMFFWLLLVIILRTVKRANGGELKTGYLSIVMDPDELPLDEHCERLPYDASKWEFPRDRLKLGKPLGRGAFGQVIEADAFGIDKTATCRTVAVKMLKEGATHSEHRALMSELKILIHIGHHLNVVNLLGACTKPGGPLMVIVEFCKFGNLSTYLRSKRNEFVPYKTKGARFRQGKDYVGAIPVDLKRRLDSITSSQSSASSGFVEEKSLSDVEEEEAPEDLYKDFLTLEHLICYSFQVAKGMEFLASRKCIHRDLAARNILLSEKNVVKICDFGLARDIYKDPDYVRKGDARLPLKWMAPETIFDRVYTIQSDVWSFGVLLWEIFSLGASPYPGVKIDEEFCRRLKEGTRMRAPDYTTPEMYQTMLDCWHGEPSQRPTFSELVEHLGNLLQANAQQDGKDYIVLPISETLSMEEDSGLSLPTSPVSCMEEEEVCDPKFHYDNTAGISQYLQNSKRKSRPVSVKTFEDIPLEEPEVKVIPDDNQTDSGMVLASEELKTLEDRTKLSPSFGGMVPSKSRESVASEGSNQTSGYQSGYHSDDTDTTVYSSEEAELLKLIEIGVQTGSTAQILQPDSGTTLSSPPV
# assay notes: Inhibition of recombinant VEGFR2 kinase domain (unknown origin)
reported metric: pIC50
Kindly note that pIC50 refers to -log10 of the concentration in mol/L and answer with the value alone.

// below: answered compounds
1. COc1cc2ncnc(Oc3ccc(Nc4nccc5[nH]cc(-c6ccc(F)cc6)c(=O)c45)cc3F)c2cc1OCC(C)(C)O
7.28
2. COc1cc2c(Oc3ccc(Nc4nccc5[nH]cc(-c6ccc(F)cc6)c(=O)c45)cc3F)ncnc2cc1OCC(C)(C)O
7.03

Turning now to a further compound:
Exam item: Fill in: pIC50 of COc1cc2c(Oc3ccc(Nc4nccc5[nH]cc(-c6ccc(F)cc6)c(=O)c45)cc3F)ncnc2cc1OCCCN1CCCC1 is ___
Marked response: 6.89

###

# subject of test: Hepatocyte growth factor receptor (Homo sapiens)
# Sequence (P08581 whole entry, the tested form may be a part): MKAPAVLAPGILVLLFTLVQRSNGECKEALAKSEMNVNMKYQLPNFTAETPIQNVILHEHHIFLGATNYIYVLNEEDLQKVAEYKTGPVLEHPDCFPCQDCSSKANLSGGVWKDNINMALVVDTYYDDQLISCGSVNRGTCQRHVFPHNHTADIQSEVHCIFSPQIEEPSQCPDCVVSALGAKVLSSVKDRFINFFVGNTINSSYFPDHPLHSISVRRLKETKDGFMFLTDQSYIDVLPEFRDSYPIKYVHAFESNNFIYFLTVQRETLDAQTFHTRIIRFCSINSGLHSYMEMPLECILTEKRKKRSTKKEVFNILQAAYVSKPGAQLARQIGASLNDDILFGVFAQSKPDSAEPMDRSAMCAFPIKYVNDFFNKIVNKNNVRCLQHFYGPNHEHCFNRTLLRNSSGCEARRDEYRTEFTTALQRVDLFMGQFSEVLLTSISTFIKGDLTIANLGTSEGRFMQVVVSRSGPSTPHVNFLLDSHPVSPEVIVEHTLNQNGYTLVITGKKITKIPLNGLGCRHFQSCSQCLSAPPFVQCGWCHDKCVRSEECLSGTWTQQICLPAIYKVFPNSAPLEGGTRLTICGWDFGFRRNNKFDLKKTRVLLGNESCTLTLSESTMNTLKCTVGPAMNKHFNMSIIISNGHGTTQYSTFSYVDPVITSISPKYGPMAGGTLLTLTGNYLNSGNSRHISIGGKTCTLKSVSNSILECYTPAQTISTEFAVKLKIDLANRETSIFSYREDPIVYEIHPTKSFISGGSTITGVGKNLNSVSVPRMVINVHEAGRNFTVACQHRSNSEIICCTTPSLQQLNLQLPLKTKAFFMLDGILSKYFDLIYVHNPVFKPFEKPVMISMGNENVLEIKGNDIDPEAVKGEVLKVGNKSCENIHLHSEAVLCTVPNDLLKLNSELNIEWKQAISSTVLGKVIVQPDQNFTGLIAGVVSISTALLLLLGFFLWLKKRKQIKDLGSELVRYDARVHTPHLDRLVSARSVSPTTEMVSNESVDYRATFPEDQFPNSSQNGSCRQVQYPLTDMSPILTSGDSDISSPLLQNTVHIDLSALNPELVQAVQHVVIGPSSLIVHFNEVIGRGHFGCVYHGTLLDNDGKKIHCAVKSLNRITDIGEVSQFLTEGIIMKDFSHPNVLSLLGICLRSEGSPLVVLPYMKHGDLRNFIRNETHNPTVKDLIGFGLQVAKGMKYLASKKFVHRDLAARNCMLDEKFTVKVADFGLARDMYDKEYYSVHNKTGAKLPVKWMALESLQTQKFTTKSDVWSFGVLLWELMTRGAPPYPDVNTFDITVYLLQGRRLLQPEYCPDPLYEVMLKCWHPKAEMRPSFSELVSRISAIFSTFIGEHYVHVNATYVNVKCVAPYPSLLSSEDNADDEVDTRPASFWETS
# assay notes: Inhibition of recombinant MET kinase domain (unknown origin)
Catalogue of molecules with associated pIC50
Kindly note that pIC50 refers to -log10 of the concentration in mol/L and answer with the value alone.

// below: answered molecules
1. COc1cc2ncnc(Oc3ccc(Nc4nccc5[nH]cc(-c6ccc(F)cc6)c(=O)c45)cc3F)c2cc1OCC(C)(C)O
8.10
2. COc1cc2c(Oc3ccc(Nc4nccc5[nH]cc(-c6ccc(F)cc6)c(=O)c45)cc3F)ncnc2cc1OCCCN1CCCC1
8.08
3. COc1cc2ncnc(Oc3ccc(Nc4nccc5[nH]cc(-c6ccc(F)cc6)c(=O)c45)cc3F)c2cc1OCCCN1CCCC1
8.09
4. COCCOc1cc2ncnc(Oc3ccc(Nc4nccc5[nH]cc(-c6ccc(F)cc6)c(=O)c45)cc3F)c2cc1OCCOC
7.71

Exam item: Fill in: pIC50 of COc1cc2ncnc(Oc3ccc(Nc4nccc5[nH]cc(-c6ccc(F)cc6)c(=O)c45)cc3F)c2cc1OCCO.Cc1ccc(S(=O)(=O)O)cc1 is ___
Marked response: 8.46
